Below, each entry is listed alongside its reported melting point.

Recorded results for 3 molecules are shown here.
INSERT INTO measurements (molecule, property_measured, value_measured) VALUES
  ('CCCC(=O)c1cnc2c(OC)cccc2c1Nc1c(C)cc(O)cc1C', 'melting point', '247 to 248 °C'),
  ('O=C(NC1CCOC1=O)c1cc2c(n(CC3CCCCC3)c1=O)CCCCCC2 (configuration not stated)', 'melting point', '136 to 140 °C'),
  ('COc1ccc(-c2nn(-c3ccsc3)c3c(Cl)cccc23)cc1', 'melting point', '111 °C');

Looking up NS(=O)(=O)c1cc2cc(C(=O)NCC(O)CO)sc2s1 (configuration not stated) , I see its melting point listed as 117 to 118 °C

Looking up CC#CCOc1ccc(SC(C(=O)NO)c2ccc(F)cc2)cc1 (configuration not stated) , I see its melting point listed as 91.1 °C

Looking up `CC(=O)OCc1cc(Cl)ccc1Sc1ccccc1CN(C)C` , I see its melting point listed as 41 to 44 °C

Looking up `COc1cc(N)c(SC)cc1OC` , I see its melting point listed as 72 to 74 °C

Looking up `CS(=O)(=O)Nc1c(C(=O)c2cccc(Br)c2)[nH]c2cc(Cl)ccc12` , I see its melting point listed as 184 to 185 °C

----------
Below, each entry is listed alongside its reported melting point.

INSERT INTO measurements (compound, value_measured) VALUES
  ('CCOC(=O)c1cnc(-c2ccc(Cl)cc2)nc1-c1ccc(OC)c(OC)c1', '115 °C'),
  ('COc1ccc(C2Nc3ccc(Cl)cc3C(C#CC3CC3)(C(F)(F)F)O2)cc1OC (centres undefined)', '172 to 175 °C'),
  ('CC(=O)Oc1cccc2c1NC(O)C1CCCN1C2=O (centres undefined)', '143 to 145 °C');

Now for a further compound.
Looking up `CCCCOCCOc1ccc(-c2ccc3c(c2)C=C(C(=O)Nc2ccc(N(C)Cc4nncn4CCC)cc2)CCN3CC(C)C)cc1` , I see its melting point listed as 134 to 136 °C

----------
property.measured: melting point

Recorded results for 5 molecules are shown here.
INSERT INTO results (molecule, value_measured) VALUES
  ('O=C(NCc1ccc2c(c1)OCO2)Nc1cc(N2CC(c3ccccc3)CC2=O)ccn1 (centres undefined)', '185 to 188 °C'),
  ('c1cc(-c2ccc(N3CCCN(c4ccc(-c5ccsc5)cn4)CC3)nc2)cs1', '234 to 236 °C'),
  ('O=C(OC1CCCCC1)c1ccc(Cl)c([N+](=O)[O-])c1', '57 to 58 °C'),
  ('COC(=O)c1ncc(OCc2ccccn2)nc1NCc1ccc(OC)c(Cl)c1', '132 to 133 °C'),
  ('Cc1cccc(C)c1CNc1cc(C(=O)N(C)C)cc2c1nc(C)n2COCc1ccccc1', '55 to 56 °C');

Looking up `CCc1cc(C(=O)c2ccccc2Cl)c(-n2cnnc2CNC(=O)c2ccccc2)s1` , I see its melting point listed as 140 to 142 °C

----------
property.measured: melting point

INSERT INTO assay_data (compound, value_measured) VALUES
  ('COc1ccc(Cn2nnc(-c3cccc(CO)c3)n2)cc1', '70 to 72 °C');

Looking up O=C(O)c1ccc(OCC2CN(c3ccccc3)C(=S)O2)cc1 (stereo not given) , I see its melting point listed as 214 to 215 °C

Looking up `N#CCCCCn1c(=O)c2ccccc2n(CCCCN2CCC(OC(c3ccccc3)c3ccccc3)CC2)c1=O` , I see its melting point listed as 119 to 121 °C
